// reported d(CA1,O4) for each item listed
- assayed_target: MASP-2 CCP2-SP (Homo sapiens (Human), UniProt O00187)
- Sequence (O00187 445-686): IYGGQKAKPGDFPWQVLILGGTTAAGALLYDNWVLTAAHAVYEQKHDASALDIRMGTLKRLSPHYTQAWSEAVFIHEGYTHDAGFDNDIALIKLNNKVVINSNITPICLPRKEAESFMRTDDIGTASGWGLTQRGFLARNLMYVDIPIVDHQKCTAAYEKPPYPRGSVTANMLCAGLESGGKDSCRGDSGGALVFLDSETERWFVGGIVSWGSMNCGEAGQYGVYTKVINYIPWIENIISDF
- Sequence (O00187 364-432 partner): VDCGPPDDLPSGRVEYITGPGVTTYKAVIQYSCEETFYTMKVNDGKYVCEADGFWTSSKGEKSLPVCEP
- experiment: MASP-2 co-crystallization, X-ray crystallography and structure analysis (H-bonds, van der Waals contacts)
- experimental_context: Table A5-1 pharmacophore: distance between elements, S2/S1 region
Response field accepts a number only; no unit should be typed.

Known d(CA1,O4) results, listed for orientation:
C[C@H](NC(=O)[C@H]1C[C@@H](c2ccccc2)CCN1)C(=O)NCc1cc(Cl)ccc1O.Cl [1078_1]: 2.75
C[C@H](NC(=O)[C@H]1C[C@@H](c2ccccc2)CCN1)C(=O)NCc1cc(Cl)ccc1O.Cl [1078_16]: 2.74
C[C@H](NC(=O)[C@H]1C[C@@H](c2ccccc2)CCN1)C(=O)NCc1cc(Cl)ccc1O.Cl [1078_7]: 2.77
C[C@H](NC(=O)[C@H]1C[C@@H](c2ccccc2)CCN1)C(=O)NCc1cc(Cl)ccc1O.Cl [1078_10]: 2.76
C[C@H](NC(=O)[C@H]1C[C@@H](c2ccccc2)CCN1)C(=O)NCc1cc(Cl)ccc1O.Cl [1078_4]: 2.76

Exercise: # lookup: d(CA1,O4) of C[C@H](NC(=O)[C@H]1C[C@@H](c2ccccc2)CCN1)C(=O)NCc1cnc2[nH]cc(Cl)c2c1 [compound 1433]
Key: 1.77

Exercise: Recorded d(CA1,O4) of C[C@H](NC(=O)[C@H]1C[C@H](Cc2ccccc2)CN1)C(=O)NCc1cnc2[nH]cc(Cl)c2c1 [compound 1334] , please.
Key: 1.75

* * *

- assayed_target: MASP-2 CCP2-SP (Homo sapiens (Human), UniProt O00187)
- experiment: MASP-2 co-crystallization, X-ray crystallography and structure analysis (H-bonds, van der Waals contacts)
- Parameters: unit not given beside the values
- experimental_context: Table A5-1 pharmacophore: distance between elements, S2/S1 region
Structures can show the parent of a compound that is named as a salt.
Recorded d(H4,O1) split into classes class 1 (below 4), class 2 (4 to below 5), class 3 (5 or more)

Illustrative cases are given below, each with its answer.
C[C@H](NC(=O)[C@H]1C[C@@H](c2ccccc2)CCN1)C(=O)NCc1cc(Cl)ccc1O.Cl [1078_8]: class 1
C[C@H](NC(=O)[C@H](N)CCc1ccccc1)C(=O)NCc1ccc(N)nc1.Cl.Cl [1007_2]: class 1
Cc1nc(N)ccc1CNC(=O)[C@H](C)NC(=O)[C@H]1C[C@@H](c2ccccc2)CCN1CCC(=O)O [compound 1411, Trifluoroacetate salt]: class 2
C[C@H](NC(=O)[C@H]1C[C@@H](c2ccccc2)CCN1)C(=O)NCc1cc(Cl)ccc1O.Cl [1078_16]: class 1
Cc1nc(N)ccc1CNC(=O)[C@H](C)NC(=O)[C@H]1C[C@@H](c2ccccc2)CCN1C [compound 1441]: class 2

Read the next record carefully.
Exercise: Which bin should I file Cc1nc(N)ccc1CNC(=O)C(C)NC(=O)C1CC(c2cccc3ccccc23)CCN1.Cl.Cl (stereo not drawn) [1297_6] under?
Key: class 2

* * *

- assayed_target: MASP-2 CCP2-SP (Homo sapiens (Human), UniProt O00187)
- experiment: MASP-2 co-crystallization, X-ray crystallography and structure analysis (H-bonds, van der Waals contacts)
- Set-up: unit not given beside the values
- experimental_context: Table A5-1 pharmacophore: distance between elements, S2/S1 region
Entries and their d(O1,O2) values follow.
Answer with the value's number alone.

Use these answered entries as a reference point.
C[C@H](NC(=O)[C@H](N)C1Cc2ccccc2C1)C(=O)NCc1ccc2c(N)nccc2c1.Cl.Cl [1088_A]: 3.49
C[C@H](NC(=O)[C@H]1C[C@@H](c2ccccc2)CCN1)C(=O)NCc1cc(Cl)ccc1O.Cl [1078_2]: 3.25
Cc1nc(N)ccc1CNC(=O)[C@H](C)NC(=O)c1cc(Cc2ccccc2)n[nH]1: 4.72
Cc1nc(N)ccc1CNC(=O)[C@H](C)NC(=O)[C@H]1C[C@H](Cc2cccc(Cl)c2)CN1.Cl.Cl [1328_4]: 3.71
CNC(=O)c1ccc2c(=O)n(Cc3ccccc3)c(=O)n(CC(=O)NCc3ccc(C(=N)N)cc3)c2c1: 4.92

Exercise: Notebook entry, MASP-2 CCP2-SP (Homo sapiens (Human), UniProt O00187) assay: d(O1,O2) of C[C@H](NC(=O)[C@H]1C[C@H](Cc2ccccc2)CN1)C(=O)NCc1ccc(C(=N)N)cc1.Cl.Cl [1306_2] = ?
Key: 2.68

Exercise: Reported d(O1,O2) for MASP-2 CCP2-SP (Homo sapiens (Human), UniProt O00187), given C[C@H](NC(=O)[C@H]1C[C@@H](c2ccccc2)CCN1)C(=O)NCc1cc(Cl)ccc1O.Cl [1078_15] ?
Key: 2.93

Exercise: Hello, I am looking for reported d(O1,O2) with MASP-2 CCP2-SP (Homo sapiens (Human), UniProt O00187) for Cc1nc(N)ccc1CNC(=O)C(C)NC(=O)C1CC(c2cccc3ccccc23)CCN1.Cl.Cl (centres unmarked) [1297_6] . Could you help?
Key: 3.53

Exercise: Request - read-out d(O1,O2) | tested on MASP-2 CCP2-SP (Homo sapiens (Human), UniProt O00187) | molecule `C[C@H](NC(=O)[C@H](N)CCc1cccc(Cl)c1)C(=O)NCc1ccc(C(=N)N)cc1`
Key: 3.45

Exercise: Notebook: pull reported d(O1,O2) for MASP-2 CCP2-SP (Homo sapiens (Human), UniProt O00187), entry C[C@H](NC(=O)[C@H]1C[C@@H](c2ccccc2)CCN1)C(=O)NCc1ccc(C(=N)N)cc1 (stereo in doubt)
Key: 3.30

Exercise: Fill in the recorded d(O1,O2) for this molecule, with MASP-2 CCP2-SP (Homo sapiens (Human), UniProt O00187) as test system: `C[C@H](NC(=O)[C@@H](CCc1ccccc1)NCc1ccc(N2CCOCC2)cc1)C(=O)NCc1ccc(C(=N)N)cc1`
Key: 8.70

Exercise: // lookup d(O1,O2) | system=MASP-2 CCP2-SP (Homo sapiens (Human), UniProt O00187) | key= `C[C@H](NC(=O)[C@H](N)CCc1cc(Cl)cc(Cl)c1)C(=O)NCc1ccc(C(=N)N)cc1`
Key: 3.25

Exercise: Report d(O1,O2) for C[C@H](NC(=O)[C@H]1Cc2c([nH]c3ccccc23)CN1)C(=O)NCc1ccc(C(=N)N)cc1.Cl.Cl [1097_2] tested on MASP-2 CCP2-SP (Homo sapiens (Human), UniProt O00187).
Key: 3.33

* * *

- assayed_target: MASP-2 CCP2-SP (Homo sapiens (Human), UniProt O00187)
- experiment: MASP-2 co-crystallization, X-ray crystallography and structure analysis (H-bonds, van der Waals contacts)
- Set-up: unit not given beside the values
- experimental_context: Table A5-2 pharmacophore distance, S3/S4 region
Where a name gives a salt, the structure may show the parent alone.
endpoint_name: d(O2,H3)

Please review the following examples before continuing.
Cc1nc(N)ccc1CNC(=O)[C@H](C)NC(=O)[C@H]1C[C@H](Cc2cc(Cl)cc(Cl)c2)CN1 [compound 1435, Dihydrochloride]: 4.33
C[C@H](NC(=O)[C@H]1C[C@@H](c2ccccc2)CN1)C(=O)NCc1ccc2c(N)nccc2c1.Cl.Cl [1089_B]: 5.91
C[C@H](NC(=O)[C@H](N)C1Cc2ccccc2C1)C(=O)NCc1ccc2c(N)nccc2c1.Cl.Cl [1088_A]: 3.72
C[C@H](NC(=O)[C@H]1C[C@@H](c2ccccc2)CCN1)C(=O)NCc1cc(Cl)ccc1O.Cl [1078_3]: 2.05
Cc1nc(N)ccc1CNC(=O)[C@H](C)NC(=O)[C@H]1C[C@@H](c2ccccc2)CCN1C: 4.15
Cc1nc(N)ccc1CNC(=O)C(C)NC(=O)C1CC(c2cccc3ccccc23)CCN1.Cl.Cl (centres unmarked) [1297_1]: 4.23
C[C@H](NC(=O)C1C[C@@H](c2ccccc2)CCN1)C(=O)NCc1ccc(C(=N)N)cc1 (stereo in doubt): 4.92
C[C@H](NC(=O)[C@H]1C[C@@H](c2ccccc2)CCN1)C(=O)NCc1cc(Cl)ccc1O.Cl [1078_5]: 3.24

Exercise: Which d(O2,H3) reading was recorded for the compound `C[C@H](NC(=O)[C@H]1C[C@H](c2ccccc2)CN1)C(=O)NCc1ccc2c(N)nccc2c1` ?
Key: 5.87

Exercise: Looking for the measured d(O2,H3) of C[C@H](NC(=O)[C@H](N)C1Cc2ccccc2C1)C(=O)NCc1ccc2c(N)nccc2c1.Cl.Cl [1088_B] , can you help?
Key: 3.82

* * *

Each entry below lists one item and its recorded Pharmacophore torsion angle a(O1, O2, N2, CA2) value.
- assayed_target: MASP-2 CCP2-SP (Homo sapiens (Human))
- experiment: MASP-2 co-crystallization, X-ray crystallography and structure analysis (H-bonds, van der Waals contacts)
- experimental_context: Table A7-2; between pharmacophore elements of the bound compound
- Text: This example illustrates the preparation of recombinant MASP-2 protein, based on UniProt O00187, human mannan-binding lectin serine protease 2. Expression constructs for human MASP-2 CCP2-SP and CCP2-SP-6HIS were generated for recombinant expression in E. coli cells. […]
Structures can show the parent of a compound that is named as a salt.

# example entries with known answers
C[C@H](NC(=O)[C@@H](CCc1ccccc1)NCc1ccc(C(=O)N2CCOCC2)cc1)C(=O)NCc1ccc(C(=N)N)cc1.Cl.Cl: 76.90
C[C@H](NC(=O)[C@H]1C[C@H](Cc2ccccc2)CN1)C(=O)NCc1cnc2[nH]cc(Cl)c2c1: 133.84
Cc1nc(N)ccc1CNC(=O)[C@H](C)NC(=O)[C@H]1C[C@H](Cc2cccc(Cl)c2)CN1.Cl.Cl [1328_2]: 132.29
Cc1nc(N)ccc1CNC(=O)[C@H](C)NC(=O)[C@H]1C[C@@H](c2ccccc2)CCN1CCC(=O)O [compound 1411, Trifluoroacetate salt]: 127.52
C[C@H](NC(=O)[C@H]1C[C@@H](c2ccccc2)CCN1)C(=O)NCc1cc(Cl)ccc1O.Cl [1078_5]: 149.21

Exercise: Endpoint output: Pharmacophore torsion angle a(O1, O2, N2, CA2) of `C[C@H](NC(=O)[C@@H](CCc1ccccc1)NCCCc1ccc(O)cc1)C(=O)NCc1ccc(C(=N)N)cc1.Cl.Cl` . Value?
Key: 140.87

Exercise: Any idea what Pharmacophore torsion angle a(O1, O2, N2, CA2) was measured for C[C@H](NC(=O)[C@H]1C[C@@H](c2ccccc2)CCN1)C(=O)NCc1cc(Cl)ccc1O.Cl [1078_15] ?
Key: 141.63
